From: ChEMBL document CHEMBL3596134

assay: Volume of distribution at steady state in rat at 1 mg/kg, iv and 1 mg/kg, po; type: ADME, organism-based; settings: in vivo, read-out: Vdss
MEASURED_ENDPOINT: Vd (L/kg)
State just the number; it will be interpreted in L/kg.

Read the entry `Cc1c(F)cccc1CCCCOc1ccc(C#Cc2ccc(F)c3c(CCCC(=O)O)c(C)n(CCCC(=O)O)c23)cc1` and write its reported Vd.
0.24

====

experiment: Half life in guinea pig at 1 mg/kg, iv; type: ADME, organism-based, Cavia porcellus; settings: in vivo
MEASURED_ENDPOINT: half-life (min)
State just the number; it will be interpreted in min.

Read the entry `Cc1c(Cl)cccc1CCCCOc1ccc(/C=C/c2cccc3c(CCCC(=O)O)c(C)n(CC(=O)O)c23)cc1` and write its reported half-life.
318
